// data source = ChEMBL document CHEMBL1124476

species: Rattus norvegicus; test: […]; format: ADME, organism-based, Urine; set-up: dose 100 mg/kg, route oral; conditions: in vivo, po, 100 mg/kg
measured quantity: Mean urine volume (mL)
Form entry: value (mL) — number only.

Please report Mean urine volume for the following compound: COc1ccc(C(CN(C)C)c2nnc3n2-c2ccc(Cl)cc2C(c2ccccc2)=NC3)cc1 (stereo not given)
12.25

Give the reported value of Mean urine volume for this record: CN(C)CCc1nnc2n1-c1ccc(Br)cc1C(c1ccccc1)=NC2
13

Look up Mean urine volume of CC1N=C(c2ccccc2)c2cc(Cl)ccc2-n2c1nnc2C(CN(C)C)c1ccccc1 (stereo not given) and report it.
10.66

Consider the compound CN(C)CC(c1ccccc1Cl)c1nnc2n1-c1ccc(Cl)cc1C(c1ccccc1)=NC2 (stereo not given) and give its recorded Mean urine volume.
9.85

Please report Mean urine volume for the following compound: NS(=O)(=O)c1cc2c(cc1Cl)NCNS2(=O)=O [HYDROCHLOROTHIAZIDE]
10.61

Supply Mean urine volume value. Item: COc1cccc(C(CN(C)C)c2nnc3n2-c2ccc(Cl)cc2C(c2ccccc2)=NC3)c1 (stereo not given)
12.03

Return Mean urine volume (reported value) for this compound: COc1ccccc1C(CN(C)C)c1nnc2n1-c1ccc(Cl)cc1C(c1ccccc1)=NC2 (stereo not given)
4.56

Please supply the value of reported Mean urine volume for the item Nc1nc(N)c2nc(-c3ccccc3)c(N)nc2n1
7.01

State its Mean urine volume for this compound: CN(C)CC(c1ccccc1)c1nnc2n1-c1ccc(Cl)cc1C(c1ccccc1)=NC2 (stereo not given)
9.54

// Input: CN(C)CCc1nnc2n1-c1ccc(Br)cc1C(c1ccccn1)=NC2 . Output its Mean urine volume only.
11.02

====

organism: Rattus norvegicus; experiment: […]; assay type: ADME, organism-based, Urine; set-up: dose 3 mg/kg, route oral; details: in vivo, po, 3 mg/kg
Assignment: determine reported Mean urine volume for the given compounds.
Value expressed in mL; do not type the unit.

Name the recorded Mean urine volume of the item CN(C)CCc1nnc2n1-c1ccc(Br)cc1C(c1ccccn1)=NC2 in your answer.
5.53

Tell me Mean urine volume reported for CN(C)CCc1nnc2n1-c1ccc(Br)cc1C(c1ccccc1)=NC2
5.97

Identify measured Mean urine volume corresponding to COc1cccc(C(CN(C)C)c2nnc3n2-c2ccc(Cl)cc2C(c2ccccc2)=NC3)c1 (stereo not given)
4.29

Fill in Mean urine volume for record NS(=O)(=O)c1cc(C(=O)O)c(NCc2ccco2)cc1Cl [FUROSEMIDE]
5.23

// fetch Mean urine volume given entry I.NCC(c1ccccc1)c1nnc2n1-c1ccc(Cl)cc1C(c1ccccc1)=NC2 (stereo not given)
3.92

Please supply the value of reported Mean urine volume for the item CN(C)CC(c1ccccc1Cl)c1nnc2n1-c1ccc(Cl)cc1C(c1ccccc1)=NC2 (stereo not given)
4.67

Report Mean urine volume for CC1N=C(c2ccccc2)c2cc(Cl)ccc2-n2c1nnc2C(CN(C)C)c1ccccc1 (stereo not given)
4.96

Provide Mean urine volume value for the following compound: Nc1nc(N)c2nc(-c3ccccc3)c(N)nc2n1
4.32

Read off the recorded Mean urine volume for NS(=O)(=O)c1cc2c(cc1Cl)NCNS2(=O)=O [HYDROCHLOROTHIAZIDE]
8.48

Please give the documented Mean urine volume of CSc1ccc2c(c1)C(c1ccccc1)=NCc1nnc(C(CN(C)C)c3ccccc3)n1-2 (stereo not given)
5.2

Indicate the recorded Mean urine volume value for this compound: COc1ccc(C(CN(C)C)c2nnc3n2-c2ccc(Cl)cc2C(c2ccccc2)=NC3)cc1 (stereo not given)
4.98

Tell me measured Mean urine volume for COc1ccccc1C(CN(C)C)c1nnc2n1-c1ccc(Cl)cc1C(c1ccccc1)=NC2 (stereo not given) please.
5.38

Give the measured Mean urine volume for CN(C)CC(c1ccccc1)c1nnc2n1-c1ccc(Br)cc1C(c1ccccc1)=NC2 (stereo not given)
3.4

Input CN(C)CC(c1ccccc1)c1nnc2n1-c1ccc(Cl)cc1C(c1ccccc1)=NC2 (stereo not given) , output reported Mean urine volume.
5.36

Hello, please tell me recorded Mean urine volume for this one: CN(C)CC(c1ccccc1)c1nnc2n1-c1ccc(I)cc1C(c1ccccc1)=NC2 (stereo not given)
4.86

====

For each of the compounds below, state its Mean excretion of Cl-.
tested on: Rattus norvegicus; experiment: Mean excretion of chloride in conscious rats at a dose of 100 mg/kg given orally; assay type: ADME, organism-based; parameters: dose 100 mg/kg, route oral; conditions: in vivo, po
Could you kindly put the unit after your number?

Output measured Mean excretion of Cl- for this item: COc1ccccc1C(CN(C)C)c1nnc2n1-c1ccc(Cl)cc1C(c1ccccc1)=NC2 (centres undefined)
0.69 m equiv

Fill in Mean excretion of Cl- for record I.NCC(c1ccccc1)c1nnc2n1-c1ccc(Cl)cc1C(c1ccccc1)=NC2 (centres undefined)
1.57 m equiv

Identify measured Mean excretion of Cl- associated with CN(C)CCc1nnc2n1-c1ccc(Br)cc1C(c1ccccn1)=NC2
1.21 m equiv

State its Mean excretion of Cl- for this compound: CSc1ccc2c(c1)C(c1ccccc1)=NCc1nnc(C(CN(C)C)c3ccccc3)n1-2 (centres undefined)
2.17 m equiv

Find the measured Mean excretion of Cl- of CC1N=C(c2ccccc2)c2cc(Cl)ccc2-n2c1nnc2C(CN(C)C)c1ccccc1 (centres undefined) and report it.
1.9 m equiv

Dear colleague, please send me the reported Mean excretion of Cl- for CN(C)CC(c1ccccc1)c1nnc2n1-c1ccc(Cl)cc1C(c1ccccc1)=NC2 (centres undefined) when you can.
1.26 m equiv

Retrieve Mean excretion of Cl- measured for CN(C)CC(c1ccccc1Cl)c1nnc2n1-c1ccc(Cl)cc1C(c1ccccc1)=NC2 (centres undefined) and print it.
1.69 m equiv

Could you please provide reported Mean excretion of Cl- for Nc1nc(N)c2nc(-c3ccccc3)c(N)nc2n1 ? Thanks!
0.7 m equiv

// Input: CN(C)CC(c1ccccc1)c1nnc2n1-c1ccc(Br)cc1C(c1ccccc1)=NC2 (centres undefined) . Output its Mean excretion of Cl- only.
1.01 m equiv

Answer with the recorded Mean excretion of Cl- of CN(C)CC(c1ccccc1)c1nnc2n1-c1ccc(I)cc1C(c1ccccc1)=NC2 (centres undefined) only.
1.82 m equiv

Identify Mean excretion of Cl- associated with the compound CN(C)CCc1nnc2n1-c1ccc(Br)cc1C(c1ccccc1)=NC2
1.42 m equiv

Supply measured Mean excretion of Cl- of COc1ccc(C(CN(C)C)c2nnc3n2-c2ccc(Cl)cc2C(c2ccccc2)=NC3)cc1 (centres undefined) in your reply.
1.65 m equiv

Read the entry NS(=O)(=O)c1cc2c(cc1Cl)NCNS2(=O)=O [HYDROCHLOROTHIAZIDE] and write its reported Mean excretion of Cl-.
2.09 m equiv

# return recorded Mean excretion of Cl- for input COc1cccc(C(CN(C)C)c2nnc3n2-c2ccc(Cl)cc2C(c2ccccc2)=NC3)c1 (centres undefined)
1.8 m equiv

====

tested on: Rattus norvegicus; experiment: Mean excretion of potassium in conscious rats at a dose of 0.3 mg/kg given orally; format: ADME, organism-based; design: dose 0.3 mg/kg, route oral; conditions: in vivo, po
Could you please report measured Mean excretion of K+ for the items listed next?
Report as a plain number; the unit m equiv is understood.

Give a short answer stating reported Mean excretion of K+ for COc1cccc(C(CN(C)C)c2nnc3n2-c2ccc(Cl)cc2C(c2ccccc2)=NC3)c1 (stereo not given) .
0.22

Give the value of Mean excretion of K+ reported for the following: COc1ccccc1C(CN(C)C)c1nnc2n1-c1ccc(Cl)cc1C(c1ccccc1)=NC2 (stereo not given)
0.17

Identify Mean excretion of K+ associated with the molecule Nc1nc(N)c2nc(-c3ccccc3)c(N)nc2n1
0.12

Give the value of Mean excretion of K+ reported for the following: NS(=O)(=O)c1cc2c(cc1Cl)NCNS2(=O)=O [HYDROCHLOROTHIAZIDE]
0.26

Return Mean excretion of K+ for the following molecule: CN(C)CCc1nnc2n1-c1ccc(Br)cc1C(c1ccccn1)=NC2
0.38

Complete the entry with Mean excretion of K+ for CN(C)CCc1nnc2n1-c1ccc(Br)cc1C(c1ccccc1)=NC2
0.25

Write down Mean excretion of K+ measured for item CC1N=C(c2ccccc2)c2cc(Cl)ccc2-n2c1nnc2C(CN(C)C)c1ccccc1 (stereo not given)
0.24

Find the measured Mean excretion of K+ of NS(=O)(=O)c1cc(C(=O)O)c(NCc2ccco2)cc1Cl [FUROSEMIDE] and report it.
0.22

Kindly indicate its recorded Mean excretion of K+. Item: CN(C)CC(c1ccccc1)c1nnc2n1-c1ccc(Cl)cc1C(c1ccccc1)=NC2 (stereo not given)
0.25

Complete the entry with Mean excretion of K+ for COc1ccc(C(CN(C)C)c2nnc3n2-c2ccc(Cl)cc2C(c2ccccc2)=NC3)cc1 (stereo not given)
0.23

====

system: Rattus norvegicus; experiment: Mean excretion of chloride in conscious rats at a dose of 3.0 mg/kg given orally; type: ADME, organism-based; design: dose 3 mg/kg, route oral; conditions: in vivo, po
Exercise: state measured Mean excretion of Cl- for each of the compounds provided.
Response body: numeric value in m equiv, unit text excluded.

Supply Mean excretion of Cl- value. Item: COc1ccc(C(CN(C)C)c2nnc3n2-c2ccc(Cl)cc2C(c2ccccc2)=NC3)cc1 (centres undefined)
0.75

Fill in Mean excretion of Cl- for record CN(C)CCc1nnc2n1-c1ccc(Br)cc1C(c1ccccn1)=NC2
0.84

Give the reported Mean excretion of Cl- for this compound. CC1N=C(c2ccccc2)c2cc(Cl)ccc2-n2c1nnc2C(CN(C)C)c1ccccc1 (centres undefined)
0.91

Please list Mean excretion of Cl- recorded for the compound COc1ccccc1C(CN(C)C)c1nnc2n1-c1ccc(Cl)cc1C(c1ccccc1)=NC2 (centres undefined)
0.8
